Overview of recorded Emax for various compounds
- TARGET DESC: LXRβ (Homo sapiens)
- Construct: Co-transfection expression plasmids, comprising full-length LXRα (pCMX-h LXRα[…] or LXRβ (pCMX-hLXRβ)); expressed in transfected cells; host or cells: CV-1 African Green Monkey Kidney Cells
- TEST: Co-transfection assay (LXRE luciferase reporter), LXRβ
- Type: cell-based
- SETTINGS: LXRβ co-transfection; relative to high control 1-(2,4-difluorobenzyl)-2-oxo-6-(4-phenoxyphenyl)-4-(trifluoromethyl)-1,2-dihydropyridine-3-carbonitrile; read-out: % Efficacy
Could you give me the number in %? Just the number is fine.

These solved cases illustrate the format of a correct answer.
INSERT INTO measurements (compound, measurement_units, recorded_value) VALUES
  ('Cc1nc(C(F)(F)F)cn1-c1ccc(-c2cccc(S(C)(=O)=O)c2)cc1-n1nncc1-c1ccc(OC(F)(F)F)cc1 [Example 49]', '%', 105),
  ('Cc1nc(C(F)(F)F)cn1-c1ccc(-c2cc(Cl)c(CO)c(S(C)(=O)=O)c2)cc1-n1nncc1-c1ccc(Cl)cc1Cl [Example 18]', '%', 62),
  ('Cc1nc(-c2ccccc2OC(F)(F)F)c(-c2cc(-c3cccc(S(C)(=O)=O)c3)ccc2-n2cc(C(F)(F)F)nc2C)o1 [Example 631]', '%', 43),
  ('Cc1cc(-c2cc(-c3cc(O)c(CF)c(S(C)(=O)=O)c3)ccc2-n2cc(C(F)(F)F)nc2C)n(-c2ccc(OC(F)(F)F)cc2)n1 [Example 303]', '%', 68),
  ('Cc1nc(C(F)(F)F)cn1-c1ccc(-c2cccc(S(C)(=O)=O)c2)cc1-n1nncc1-c1ccc(N2CCCC2)cc1 [Example 51]', '%', 107);

Incoming: Note Emax for the compound shown: CS(=O)(=O)c1cccc(-c2ccc(-n3cc(C(F)(F)F)nc3Cl)c(-n3nncc3-c3ccc(OC(F)(F)F)cc3)c2)c1 [Example 146]
Outgoing: 112

* * *

- TARGET DESC: LXRβ (Homo sapiens, UniProt P55055)
- Construct: Co-transfection expression plasmids, comprising full-length LXRα (pCMX-h LXRα[…] or LXRβ (pCMX-hLXRβ)); expressed in transfected cells; host or cells: CV-1 African Green Monkey Kidney Cells
- Sequence (P55055 1-460): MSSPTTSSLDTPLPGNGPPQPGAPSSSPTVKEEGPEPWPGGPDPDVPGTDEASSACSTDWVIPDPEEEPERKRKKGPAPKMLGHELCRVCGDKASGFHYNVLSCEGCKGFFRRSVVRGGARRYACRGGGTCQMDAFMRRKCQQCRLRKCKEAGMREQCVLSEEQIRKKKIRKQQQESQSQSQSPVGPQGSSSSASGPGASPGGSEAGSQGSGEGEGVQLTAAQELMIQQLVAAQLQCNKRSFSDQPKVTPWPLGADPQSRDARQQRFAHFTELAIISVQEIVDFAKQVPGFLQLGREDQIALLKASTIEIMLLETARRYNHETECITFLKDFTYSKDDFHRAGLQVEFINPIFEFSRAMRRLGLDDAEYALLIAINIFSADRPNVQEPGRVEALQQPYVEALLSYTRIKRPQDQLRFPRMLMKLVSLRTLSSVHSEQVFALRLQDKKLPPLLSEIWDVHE
- Sequence (P19793 1-462 partner): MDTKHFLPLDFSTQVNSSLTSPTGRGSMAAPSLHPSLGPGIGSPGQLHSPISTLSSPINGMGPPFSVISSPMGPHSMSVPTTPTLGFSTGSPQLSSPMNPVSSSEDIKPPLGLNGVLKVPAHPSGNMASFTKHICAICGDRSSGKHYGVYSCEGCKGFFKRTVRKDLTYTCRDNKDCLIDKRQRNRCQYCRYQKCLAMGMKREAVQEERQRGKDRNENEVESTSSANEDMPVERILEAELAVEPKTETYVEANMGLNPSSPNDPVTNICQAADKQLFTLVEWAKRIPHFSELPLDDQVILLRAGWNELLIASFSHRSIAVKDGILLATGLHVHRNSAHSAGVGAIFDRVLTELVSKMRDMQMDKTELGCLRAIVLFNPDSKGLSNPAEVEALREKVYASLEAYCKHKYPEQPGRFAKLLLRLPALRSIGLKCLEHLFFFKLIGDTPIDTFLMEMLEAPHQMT
- TEST: Co-transfection assay (LXRE luciferase reporter), LXRβ
- Assay type: cell-based
- SETTINGS: LXRβ co-transfection; relative to high control 1-(2,4-difluorobenzyl)-2-oxo-6-(4-phenoxyphenyl)-4-(trifluoromethyl)-1,2-dihydropyridine-3-carbonitrile; read-out: % Efficacy
Friendly reminder: Emax below 80% is met, at or above is not met.

Some entries whose results are on file:
INSERT INTO results (smiles_data, class_name) VALUES
  ('Cc1nc(C(F)(F)F)cn1-c1ccc(-c2ccc(CO)c(S(C)(=O)=O)c2)cc1-c1nc(CCO)oc1-c1ccc(OC(F)(F)F)cc1', 'met'),
  ('Cc1nc(C(F)(F)F)cn1-c1ccc(-c2cc(F)c(CO)c(S(C)(=O)=O)c2)cc1-c1ocnc1-c1ccc(Cl)cc1', 'not met'),
  ('Cc1nc(C(F)(F)F)cn1-c1ccc(-c2cccc(S(C)(=O)=O)c2)cc1-n1nncc1-c1ccc(F)c(Cl)c1', 'not met'),
  ('Cc1nc(C(F)(F)F)cn1-c1ccc(-c2cc(F)c(CO)c(S(C)(=O)=O)c2)cc1-c1oc(C(C)C)nc1-c1ccc(OC(F)(F)F)cc1', 'met'),
  ('Cc1nc(-c2cc(-c3cc(F)c(CO)c(S(C)(=O)=O)c3)ccc2-n2cc(C(F)(F)F)nc2C)c(-c2ccc(N3CCCC3=O)cc2)o1', 'met');

Incoming: Quick check: Emax of Cc1nc(-c2cc(-c3cc(F)c(CO)c(S(C)(=O)=O)c3)ccc2-n2cc(C(F)(F)F)nc2C)c(-c2ccc(C(F)(F)F)nc2)o1 under 80%?
Outgoing: met

Incoming: Quick check: Emax of Cc1nc(C(F)(F)F)cn1-c1ccc(-c2cc(Cl)c(CO)c(S(C)(=O)=O)c2)cc1-n1nncc1Cc1cccc(Cl)c1 under 80%?
Outgoing: met

Incoming: Quick check: Emax of Cc1nc(C(F)(F)F)cn1-c1ccc(-c2cccc(S(=O)(=O)N(C)C)c2)cc1-c1ocnc1-c1ccc(OC(F)(F)F)cc1 under 80%?
Outgoing: not met

Incoming: Quick check: Emax of CNS(=O)(=O)c1cccc(-c2ccc(-n3cc(C(F)F)nc3C)c(-c3cnnn3Cc3ccc(Cl)cc3)c2)c1 under 80%?
Outgoing: not met
